measuredOn: T1, Scribble PDZ1 R801A (human, UniProt Q14160 719-829, R801A)
T1 construct: Scribble, human, PDZ1, aa 719-829 in pETM-11, with R801A (text, methods and primers); source: E. coli BL21 Gold (DE3), purified (Ni2+ Sepharose)
assayText: ITC; iTC200, 25°C, 20 mM HEPES pH 7.4; protein 50-100 µM in the cell, 0.64-3 mM peptide in the syringe; single-site fit, stoichiometry fixed to 0.8-1.1; triplicate
conditionContext: both partners purified
Square brackets hold non-standard residues; d marks the D form. Ends that are not written are not given here. pS = N[C@@H](COP(=O)(O)O)C(=O)O
reportedMetric: Kd

binder | recordedResult
MKRLTSTRL (C-terminal nine residues of RPS6KA2, human; source: synthetic peptide, bought: GeneCust) [RPS6KA2 peptide MKRLTSTRL (unphosphorylated)] | 28 µM
MKRLT[pS]TRL (C-terminal nine residues of RPS6KA2, human; also called pRPS6KA2; phospho-RPS6KA2; source: synthetic peptide, bought: GeneCust) [RPS6KA2 peptide MKRLTpSTRL (p-3 phosphorylated)] | 17 µM
